TARGET: T1, LARP6 (70-295) (UniProt Q9BRS8 70-295)
T1 sequence: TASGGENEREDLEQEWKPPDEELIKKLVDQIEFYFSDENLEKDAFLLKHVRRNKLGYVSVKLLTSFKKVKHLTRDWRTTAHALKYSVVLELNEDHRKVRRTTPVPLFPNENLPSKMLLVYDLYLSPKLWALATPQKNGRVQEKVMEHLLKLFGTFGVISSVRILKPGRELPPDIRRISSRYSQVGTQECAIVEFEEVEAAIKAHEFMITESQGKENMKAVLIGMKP
EXPERIMENTAL_PROTOCOL: TR-FRET competition
PARAMETER: IC50 (nM)
Give just the numeric value; nM need not be written.

Q. Given the binder COL1A1-TIS (structured_RNA) RNA: CCAGCCACAAAGAGUCUACAUGUCUAGGGUCUAGACAUGUUCAGCUUUGUGGACCUCCGG , what is its reported IC50?
A. 2.71

Q. Now try CCACAAAGAGUCUACAUGUCUAGGGUCUAGACAUGUUCAGCUUUGUGG (structured_RNA) [A1 (COL1A1 5'SL)] .
A. 6.84
